# reported selectivity ratio; entries follow
Experiment: Selectivity index, ratio of CC50 for cytotoxicity in BALB/c mouse splenocytes to EC50 for immunosuppressive activity in BALB/c mouse splenocytes assessed as reduction in ConA-induced mouse T-lymphocytes proliferation
Format: toxicity, cell-based
Details: read-out: Ratio CC50/EC50
Keep it simple and answer with nothing but the number.

# Structure As Smiles, selectivity ratio
data = [
    ("CC/C=C/C=C/[C@@]1(C)OC(C[C@@H](C)[C@]2(C)C(=O)[C@]3(C)C(C)=C[C@H]4[C@]5(C=O)CC[C@H](OC(C)=O)C(C)(C)[C@H]5CC[C@]4(C)[C@]3(C(=O)OC)C2=O)=C(C(=O)OC)C1=O", 1.1),
]

input: Would you mind telling me what selectivity ratio value was observed for "COC(=O)[C@@]12C(=O)[C@](C)(C(=O)c3cc(OC)c(O)c(O)c3C(C)=O)C(=O)[C@]1(C)C(C)=C[C@H]1[C@]3(C)CC[C@H](OC(C)=O)C(C)(C)[C@H]3CC[C@@]12C" ?
output: 1.9

input: Data request, read-out selectivity ratio, for "COC(=O)[C@@]12C(=O)[C@](C)(C(=O)c3cc(OC)c(O)c(O)c3C(C)=O)C(=O)[C@]1(C)C(C)=C[C@H]1[C@]3(C=O)CC[C@H](OC(C)=O)C(C)(C)[C@H]3CC[C@@]12C"
output: 1.9

input: For the molecule "CC/C=C/C=C/[C@@]1(C)OC(C[C@H](C)[C@]2(C)C(=O)[C@]3(C)C(C)=C[C@H]4[C@]5(C=O)CC[C@H](OC(C)=O)C(C)(C)[C@H]5CC[C@]4(C)[C@]3(C(=O)OC)C2=O)=C(C(=O)OC)C1=O" , what selectivity ratio is on record?
output: 2.2

###

# EC50 annotations
Test system: Splenocyte
Experiment: Immunosuppressive activity in BALB/c mouse splenocyte assessed as reduction in ConA-induced mouse T-lymphocytes proliferation incubated for 48 hrs by MTT assay
Format: functional, cell-based
Provide the reading as a plain figure in µM.

input: Find the recorded EC50 belonging to "CC/C=C/C=C/[C@@]1(C)OC(C[C@@H](C)[C@]2(C)C(=O)[C@]3(C)C(C)=C[C@H]4[C@]5(C=O)CC[C@H](OC(C)=O)C(C)(C)[C@H]5CC[C@]4(C)[C@]3(C(=O)OC)C2=O)=C(C(=O)OC)C1=O" and report it.
output: 23

###

System: HCT-116
Test: Cytotoxicity against human HCT-116 cells assessed as inhibition of cell growth by MTT assay
Format: functional, cell-based
Activity calls are given as the source filed them. The calls are words filed in the database; no cut-off is given here.
Observed Property: Activity

Worked examples follow.
# Structure As Smiles, Target Under Test, Activity
data = [
    ("COC(=O)[C@@]12C(=O)[C@](C)(Cc3c(O)c(C)cc(C(C)=O)c3O)C(=O)[C@]1(C)C(C)=C[C@H]1[C@]3(CO)CC[C@H](OC(C)=O)C(C)(C)[C@H]3CC[C@@]12C", "HCT-116", "inactive"),
    ("COC(=O)C1=C(C[C@@H](C)[C@]2(C)C(=O)[C@]3(C)C(C)=C[C@H]4[C@]5(C=O)CC[C@H](OC(C)=O)C(C)(C)[C@H]5CC[C@]4(C)[C@]3(C(=O)OC)C2=O)O[C@](C)(/C=C/C=C/[C@H](C)O)C1=O", "HCT-116", "inactive"),
    ("COC(=O)[C@@]12C(=O)[C@](C)(C(=O)c3cc(OC)c(O)c(O)c3C(C)=O)C(=O)[C@]1(C)C(C)=C[C@H]1[C@]3(C)CC[C@H](OC(C)=O)C(C)(C)[C@H]3CC[C@@]12C", "HCT-116", "inactive"),
    ("COC(=O)[C@@]12C(=O)[C@](C)(C(=O)c3cc(OC)c(O)c(O)c3C(C)=O)C(=O)[C@]1(C)C(C)=C[C@H]1[C@]3(C=O)CC[C@H](OC(C)=O)C(C)(C)[C@H]3CC[C@@]12C", "HCT-116", "inactive"),
]

Shift focus to the following entry.
input: Entry "COC(=O)[C@@]12C(=O)[C@](C)(Cc3c(O)c(C)cc(C(C)=O)c3O)C(=O)[C@]1(C)C(C)=C[C@H]1[C@]3(C=O)CC[C@H](OC(C)=O)C(C)(C)[C@H]3CC[C@@]12C" has what Activity?
output: inactive
